# System: A549-ACE2 infected with SARS-CoV-2
# test_method_notes: SARS-CoV-2 infection rate relative to DMSO; higher = more infection
# measurement_setup: 0.1 µM; 24 h
measured_endpoint: SARS-CoV-2 infection rate (%)

{"columns": ["molecule", "measured_value"],
 "data": [
  ["CSc1ccc2c(c1)[C@H](N1CCN(C)CC1)Cc1ccccc1S2 (racemic) [metitepine]", 106],
  ["O=c1cc(N2CCOCC2)oc2c(-c3cccc4c3sc3ccccc34)cccc12", 101],
  ["COC(=O)[C@@]12OC[C@]34[C@H]([C@@H](O)[C@@H]1O)[C@@]1(C)CC(=O)C(O)=C(C)[C@@H]1C[C@H]3OC(=O)[C@H](OC(=O)/C=C(\\C)C(C)C)[C@@H]24 [bruceantin]", 12],
  ["COC[C@H](NC(=O)c1cnc(C)s1)C(=O)N[C@@H](COC)C(=O)N[C@@H](Cc1ccccc1)C(=O)[C@@]1(C)CO1", 76],
  ["C=C1C(=O)[C@]23[C@H](O)[C@H]1CC[C@H]2[C@@]12CO[C@]3(O)[C@@H](O)[C@@H]1C(C)(C)CC[C@@H]2O", 100]
]}
